Data provenance is patent US20210395392A1.

Target: T1, Human MerTK on hMerTK-expressing cells (human, UniProt Q12866 21-999)
T1 sequence: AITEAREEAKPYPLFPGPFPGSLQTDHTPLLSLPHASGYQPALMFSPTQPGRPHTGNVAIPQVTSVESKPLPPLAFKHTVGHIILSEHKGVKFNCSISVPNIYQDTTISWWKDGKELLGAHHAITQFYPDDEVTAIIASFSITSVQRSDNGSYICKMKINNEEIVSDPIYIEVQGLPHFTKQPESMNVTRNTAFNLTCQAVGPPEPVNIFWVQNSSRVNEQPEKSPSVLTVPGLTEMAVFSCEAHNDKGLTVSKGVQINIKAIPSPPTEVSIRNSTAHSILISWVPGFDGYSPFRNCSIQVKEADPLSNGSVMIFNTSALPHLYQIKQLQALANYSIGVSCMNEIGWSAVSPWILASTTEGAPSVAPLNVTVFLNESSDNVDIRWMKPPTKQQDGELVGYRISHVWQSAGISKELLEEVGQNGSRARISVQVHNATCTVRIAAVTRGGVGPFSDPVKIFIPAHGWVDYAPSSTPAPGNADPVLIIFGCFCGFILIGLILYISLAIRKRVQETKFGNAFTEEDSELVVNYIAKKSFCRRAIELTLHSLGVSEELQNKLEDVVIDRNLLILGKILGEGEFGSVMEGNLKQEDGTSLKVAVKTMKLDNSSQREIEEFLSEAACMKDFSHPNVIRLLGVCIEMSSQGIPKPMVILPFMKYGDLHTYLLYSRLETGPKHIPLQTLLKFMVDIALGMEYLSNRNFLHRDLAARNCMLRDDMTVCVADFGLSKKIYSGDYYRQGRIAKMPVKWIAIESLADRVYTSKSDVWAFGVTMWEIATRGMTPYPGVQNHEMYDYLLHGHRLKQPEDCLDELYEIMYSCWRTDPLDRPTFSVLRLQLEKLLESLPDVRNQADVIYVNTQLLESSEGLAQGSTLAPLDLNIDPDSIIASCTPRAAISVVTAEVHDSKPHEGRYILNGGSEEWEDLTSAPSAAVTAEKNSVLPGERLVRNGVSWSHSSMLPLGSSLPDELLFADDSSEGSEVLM
Experiment: cell-based or functional assay
ATTRIBUTE_MEASURED: Inhibition of Efferocytosis IC50 (nM)
Express your answer in nM, writing the number without its unit.

BINDER: HuMAb 1B4 (antibody, human IgG1, kappa, V domains shown, Human anti-hMerTK mAb, Bin 1) VH: QLQLQESGPGLVKPSETLSLTCAVSGYSISSGNYWGWIRQSPGKGLEWIGSVDHSGSTYYSPSLKSRVTISVDTSKNQFSLKLNSVTAADTADYYCARNTMIRGVMDWFDPWGQGTLVTVSS VL: AIQLTQSPSSLSASVGDRVTITCRASQGISSALAWYQQKPGKAPKVLIYDASSLESGVPSRFSGSGSGTDFTLTISSLQPEDFATYYCQQFRSYPTFGQGTKVEIKR
Inhibition of Efferocytosis IC50, nM: 0.072

Now turn to the next binder.
Query: For the binder shown here, HuMAb 25J80 (antibody, human IgG1, kappa, V domains shown, Human anti-hMerTK mAb, Bin 2, derived from HuMAb 25B10 by optimization) VH: QVQLVQSGAEVKKPGASVKVSCKTSGRTFIRYYMHWVRQAPGQGLEWMGIIWPNGDQTTYAQKFQGRVTMTRDTSTSTVYMELSSLRSEDTAVYYCATTYKYAMDVWGQGTTVTVSS VL: EIVLTQSPGTLSLSPGERATLSCRASQSVRSNYLAWYQQKPGQAPRLLIYGASSRATGIPDRFSGSGSGTDFTLTISRLEPEDFAVYYCQQYESPPRTFGQGTKVEIKR , give the reported Inhibition of Efferocytosis IC50.
Response: 0.093
